Target under test: HER2 A775_G776insYVMA (Homo sapiens, UniProt P04626, INS775YVMA)
Sequence (P04626 with tags, fused parts or gaps INS775YVMA limits assumed): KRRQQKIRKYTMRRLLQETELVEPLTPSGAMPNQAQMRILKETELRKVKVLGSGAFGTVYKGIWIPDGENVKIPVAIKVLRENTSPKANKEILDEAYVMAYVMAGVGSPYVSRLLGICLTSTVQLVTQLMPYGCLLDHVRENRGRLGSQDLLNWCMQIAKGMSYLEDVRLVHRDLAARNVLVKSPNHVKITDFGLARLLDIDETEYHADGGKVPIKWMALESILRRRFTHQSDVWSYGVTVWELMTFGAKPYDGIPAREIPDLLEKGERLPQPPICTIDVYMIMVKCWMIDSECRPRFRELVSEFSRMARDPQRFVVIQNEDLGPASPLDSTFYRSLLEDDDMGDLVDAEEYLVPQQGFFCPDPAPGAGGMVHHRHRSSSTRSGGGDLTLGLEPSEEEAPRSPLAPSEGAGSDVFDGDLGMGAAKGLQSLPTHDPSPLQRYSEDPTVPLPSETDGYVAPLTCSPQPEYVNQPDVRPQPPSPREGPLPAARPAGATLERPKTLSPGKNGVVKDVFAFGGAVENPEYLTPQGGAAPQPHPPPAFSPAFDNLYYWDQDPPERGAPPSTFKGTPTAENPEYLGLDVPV
Procedure text: in vitro kinase assay (enzyme assay)
Experimental conditions: human recombinant enzyme; read-out: IC50 (Mean ± SD)
Assay endpoint: pIC50
Give bare numbers, as −log10 of the molar value.

Record C=CC(=O)N1C[C@H](n2c(C#CC3CC3)c(C(=O)N[C@H](C)c3ccccc3)c3c(N)ncnc32)C[C@@H]1C . Reported pIC50: 9.00

###

Target under test: human BCRP (Homo sapiens)
Sequence (Q9UNQ0 whole entry): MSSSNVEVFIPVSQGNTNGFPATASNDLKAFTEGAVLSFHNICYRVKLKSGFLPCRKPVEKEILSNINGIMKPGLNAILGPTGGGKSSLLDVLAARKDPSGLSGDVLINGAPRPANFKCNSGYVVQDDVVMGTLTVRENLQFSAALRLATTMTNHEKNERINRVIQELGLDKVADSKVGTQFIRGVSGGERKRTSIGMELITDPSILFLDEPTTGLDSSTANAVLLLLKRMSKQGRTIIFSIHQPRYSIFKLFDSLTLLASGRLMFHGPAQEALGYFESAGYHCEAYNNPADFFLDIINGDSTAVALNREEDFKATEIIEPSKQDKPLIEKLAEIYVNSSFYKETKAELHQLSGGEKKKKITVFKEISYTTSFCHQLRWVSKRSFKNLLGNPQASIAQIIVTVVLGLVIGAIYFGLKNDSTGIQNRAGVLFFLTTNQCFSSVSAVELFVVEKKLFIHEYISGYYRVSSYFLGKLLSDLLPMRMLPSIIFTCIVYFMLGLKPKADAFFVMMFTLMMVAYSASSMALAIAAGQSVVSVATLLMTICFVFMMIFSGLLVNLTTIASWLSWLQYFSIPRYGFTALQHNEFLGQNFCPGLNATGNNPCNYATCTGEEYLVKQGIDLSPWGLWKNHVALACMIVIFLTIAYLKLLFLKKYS
Procedure text: in vitro
Assay endpoint: activity at 3 h, 0.1 μmol/L

Record C=CC(=O)N1C[C@H](n2c(C#CC3CC3)c(C(=O)N[C@H](C)c3ccccc3)c3c(N)ncnc32)C[C@@H]1C . Reported activity at 3 h, 0.1 μmol/L: 95%
